Taken from patent US7045532B2.

tested-target: ACE-2 (Homo sapiens)
Construct: a stop codon inserted after the serine immediately preceding the transmembrane domain; made in house; host or cells: CHO K1 cells (transient transfection, purified from conditioned medium)
Sequence (Q9BYF1 18-740 limits assumed): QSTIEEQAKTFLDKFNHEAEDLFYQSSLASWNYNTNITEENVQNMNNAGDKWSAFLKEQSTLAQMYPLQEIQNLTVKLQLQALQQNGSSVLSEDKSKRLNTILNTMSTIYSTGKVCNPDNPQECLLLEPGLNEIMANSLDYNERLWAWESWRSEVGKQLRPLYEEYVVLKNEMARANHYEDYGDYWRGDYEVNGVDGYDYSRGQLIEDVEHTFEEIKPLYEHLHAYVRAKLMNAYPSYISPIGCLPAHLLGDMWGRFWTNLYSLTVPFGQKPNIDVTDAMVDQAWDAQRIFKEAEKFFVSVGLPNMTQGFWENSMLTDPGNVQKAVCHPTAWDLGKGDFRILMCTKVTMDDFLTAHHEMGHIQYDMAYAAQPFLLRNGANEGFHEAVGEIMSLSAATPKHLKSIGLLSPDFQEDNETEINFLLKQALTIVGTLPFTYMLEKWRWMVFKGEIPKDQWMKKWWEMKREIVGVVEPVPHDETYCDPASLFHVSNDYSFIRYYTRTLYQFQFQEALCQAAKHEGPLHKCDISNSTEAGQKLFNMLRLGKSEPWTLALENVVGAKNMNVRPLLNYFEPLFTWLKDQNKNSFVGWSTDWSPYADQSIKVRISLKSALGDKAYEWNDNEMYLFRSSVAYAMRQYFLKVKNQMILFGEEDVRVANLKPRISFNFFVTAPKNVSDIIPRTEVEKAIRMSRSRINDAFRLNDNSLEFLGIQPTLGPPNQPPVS
assay-explanation: ACE-2 Competitive Substrate Assay (ACS Assay)
Assay type: biochemical
protocol-conditions: Ki class; compounds tested in 5% DMSO, 12 compound concentrations, Ki=Kiapp/(1+[S]/Km); read-out: Human ACE-2 Activity

[
  {
    "compound": "CC(C)C[C@H](N[C@@H](CCNS(=O)(=O)c1ccc(-c2ccc(Cl)cc2)cc1)C(=O)O)C(=O)O [KN]",
    "Ki": "> 500 nM"
  },
  {
    "compound": "CC(C)C[C@H](N[C@@H](Cn1ccn(Cc2ccc(Cl)c(Cl)c2)c1=O)C(=O)O)C(=O)O [KU]",
    "Ki": "< 100 nM"
  },
  {
    "compound": "CC(C)CC(NC(Cc1cccc(OCc2ccc(C(F)(F)F)cc2C(F)(F)F)c1)C(=O)O)C(=O)O (centres unmarked) [OC]",
    "Ki": "> 500 nM"
  },
  {
    "compound": "CC(C)C[C@H](N[C@@H](Cc1ccc(-c2ccc(C(F)(F)F)cc2)o1)C(=O)O)C(=O)O [OM]",
    "Ki": "> 500 nM"
  },
  {
    "compound": "CC(C)C[C@H](N[C@@H](Cc1coc(-c2ccccc2)n1)C(=O)O)C(=O)O [LM]",
    "Ki": "> 500 nM"
  },
  {
    "compound": "CC(C)CC(N[C@@H](Cc1cncn1Cc1cccc(F)c1)C(=O)O)C(=O)O (single isomer, unassigned) [JQ]",
    "Ki": "< 100 nM"
  },
  {
    "compound": "CC(C)C[C@H](N[C@@H](CNC(=O)c1ccc(Cl)c(Cl)c1)C(=O)O)C(=O)O [LJ]",
    "Ki": "> 500 nM"
  },
  {
    "compound": "CC(C)C[C@H](N[C@@H](Cc1cncn1Cc1cc(Cl)cc(Cl)c1)C(=O)OC1CCCC1)C(=O)O [LQ]",
    "Ki": "> 500 nM"
  }
]
